# System: BT-474
# assay summary: Potentiation of lapatinib-induced growth inhibition of human BT474 cells at 10 uM after 72 hrs by cell titer-glo based luminescence assay
# Assay type: functional
# test conditions: BT-474, 72 h, read-out: GI
// reported inhibition of growth at 10 µM for each item listed

# compound, inhibition of growth at 10 µM / %
rows = [
    ("COc1cc(/C=C/C(=O)NC(NC(=S)Nc2ccccc2)C2CC2)cc(OC)c1OC (stereo not given)", 85.2),
    ("Cc1ccccc1NC(=S)NC(NC(=O)/C=C/c1ccccc1)C1CC1 (stereo not given)", 78.6),
    ("Cc1ccccc1NC(=S)NC(NC(=O)/C=C/c1ccccc1)C(C)(C)C (stereo not given)", 78.7),
    ("CC(C)(C)C(NC(=O)/C=C/c1ccccc1)NC(=S)NC1CCCCC1 (stereo not given)", 85.2),
    ("Cc1ccccc1NC(=S)NC(CC(C)(C)C)NC(=O)/C=C/c1ccccc1 (stereo not given)", 84.2),
]
